Ref: patent US20240400701A1

target_desc: T1, human AMHRII (anti-Mullerian hormone receptor type 2) (human, UniProt Q16671 18-573)
T1 construct: whole, on cells; also called AMHR2; human AMHR2
T1 sequence (looked up): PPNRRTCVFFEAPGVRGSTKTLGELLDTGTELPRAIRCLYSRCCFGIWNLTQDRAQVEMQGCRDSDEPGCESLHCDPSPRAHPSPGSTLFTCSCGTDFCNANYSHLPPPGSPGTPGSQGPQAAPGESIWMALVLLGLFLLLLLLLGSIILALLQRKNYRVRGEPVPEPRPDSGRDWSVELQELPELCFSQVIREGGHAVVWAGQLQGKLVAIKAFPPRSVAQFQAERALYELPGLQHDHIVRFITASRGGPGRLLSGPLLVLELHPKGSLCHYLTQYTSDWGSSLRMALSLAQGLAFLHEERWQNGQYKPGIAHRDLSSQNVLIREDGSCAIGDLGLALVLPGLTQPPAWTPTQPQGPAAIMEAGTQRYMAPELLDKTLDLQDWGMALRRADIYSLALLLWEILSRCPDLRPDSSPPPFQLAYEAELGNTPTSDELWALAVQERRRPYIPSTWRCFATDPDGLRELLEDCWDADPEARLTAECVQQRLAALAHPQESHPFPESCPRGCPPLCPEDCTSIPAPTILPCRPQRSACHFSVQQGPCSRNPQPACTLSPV
test_description: FACS on CHO-K1 cells over-expressing human AMHR2
Measured EC50, listed per entry for reference.
assay_endpoint: EC50 (nM)

[
  {
    "binder": "94C4C3 H4L4 hIgG1 (antibody, V domains shown, Humanized, human IgG1; also called 94C4C3 H4L4 hlgG1) VH: QVQLQESGPGLVKPSETLSLTCTVTGYSITSDYAWNWIRQFPGKKLEWMGYISYSGSISYNPSLKSRITISRDTSKNQFFLQLSSVTAADTAVYYCARSRYSWFDYWGQGTLVTVSS VL: DIVLTQSPGTLSVSPGERATLSCSASESVDTYGNSFMHWYQQKPGQPPKLLIYRASSLESGIPVRFSGSGSRTDFTLTISRVEAEDFAVYYCQQSNEDPYTFGGGTKLEIK",
    "assay_endpoint": "EC50",
    "value_reported": 1.09
  },
  {
    "binder": "94C4C3 H4L3 hIgG1 (antibody, V domains shown, Humanized, human IgG1; also called 94C4C3 H4L3 hlgG1) VH: QVQLQESGPGLVKPSETLSLTCTVTGYSITSDYAWNWIRQFPGKKLEWMGYISYSGSISYNPSLKSRITISRDTSKNQFFLQLSSVTAADTAVYYCARSRYSWFDYWGQGTLVTVSS VL: EIVLTQSPGTLSLSPGERATLSCSASESVDTYGNSFMHWYQQKPGQPPRLLIYRASSLESGIPVRFSGSGSRTDFTLTISRVEAEDFAVYYCQQSNEDPYTFGGGTKLEIK",
    "assay_endpoint": "EC50",
    "value_reported": 1.16
  },
  {
    "binder": "94C4C3 H3L4 hIgG1 (antibody, V domains shown, Humanized, human IgG1; also called 94C4C3 H3L4 hlgG1) VH: QVQLQESGPGLVKPSETLSLTCTVSGYSITSDYAWNWIRQFPGKGLEWMGYISYSGSISYNPSLKSRITISRDTSKNQFFLKLSSVTAADTAVYYCARSRYSWFDYWGQGTLVTVSS VL: DIVLTQSPGTLSVSPGERATLSCSASESVDTYGNSFMHWYQQKPGQPPKLLIYRASSLESGIPVRFSGSGSRTDFTLTISRVEAEDFAVYYCQQSNEDPYTFGGGTKLEIK",
    "assay_endpoint": "EC50",
    "value_reported": 1.35
  }
]
